This collection of values is drawn from the Immune Epitope Database (IEDB).

# target: HLA-B*46:01
# method.summary: IEDB peptide-MHC binding, purified MHC/competitive/fluorescence; filed as Kd, often an IC50 or EC50 that approximates it; bounds were set here for any values at or beyond the usual limits of such assays
# measurement.setup: source organism: Yersinia pestis Nepal516
measured.parameter: pKd
Interpret pKd as the negative base-10 log of the concentration measured in mol/L.

get_value(item= "HLIQNPNPF" , readout=pKd) returns 5.09

---

Task for the reader: assign each of the following sequences its reported Kd.
# target: HLA-A*01:01
# method.summary: IEDB peptide-MHC binding, purified MHC/competitive/fluorescence; filed as Kd, often an IC50 or EC50 that approximates it; bounds were set here for any values at or beyond the usual limits of such assays
# measurement.setup: source organism: Human immunodeficiency virus 1

get_value(item= "GSEEIKSLF" , readout=Kd) returns ≥ 20 µM

get_value(item= "KSLYNTVATLY" , readout=Kd) returns ≥ 20 µM
